target: recombinant human GSK3β (Homo sapiens); assay: GSK3β Scintillation Proximity Assay (ATP competition); details: inhibition constants calculated with Km of ATP for GSK3β of 20 μM; 1 μM ATP, 1 μM biotinylated peptide substrate
Sequence (P49841 whole entry): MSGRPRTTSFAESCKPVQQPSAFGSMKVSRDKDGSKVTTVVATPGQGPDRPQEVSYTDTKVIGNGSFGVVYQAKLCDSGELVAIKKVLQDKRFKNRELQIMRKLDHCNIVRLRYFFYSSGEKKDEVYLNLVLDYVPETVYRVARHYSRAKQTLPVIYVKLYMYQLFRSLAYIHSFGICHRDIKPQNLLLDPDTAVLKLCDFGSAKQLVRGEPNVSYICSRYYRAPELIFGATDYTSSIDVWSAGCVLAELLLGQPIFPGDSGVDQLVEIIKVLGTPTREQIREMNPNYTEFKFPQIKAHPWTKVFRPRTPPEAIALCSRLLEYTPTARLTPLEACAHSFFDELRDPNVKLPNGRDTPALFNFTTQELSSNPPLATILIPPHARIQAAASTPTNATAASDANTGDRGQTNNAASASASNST
Where a name gives a salt, the structure may show the parent alone.
Exercise: state measured pKi for each of the compounds provided.
Give bare numbers, as −log10 of the molar value.

Consider the worked cases shown below.
{"Compound": "Cc1ncc(-c2nc(Nc3ccc(C(=O)N4C(C)CCCC4C)nc3)ncc2F)n1C1CCOCC1 (stereo not shown) [Example 23]", "Quantity Kind": "pKi", "Observed": 7.39}
{"Compound": "Cc1ncc(-c2nc(Nc3ccc(C(=O)N4CCC4)nc3)ncc2F)n1C [Example 46]", "Quantity Kind": "pKi", "Observed": 7.41}
{"Compound": "Cc1ncc(-c2nc(Nc3ccc(C(=O)N4CCC(F)CC4)nc3)ncc2F)n1C1CCOCC1 [Example 32]", "Quantity Kind": "pKi", "Observed": 7.48}

Hi! Can you tell me pKi for each of these compounds?
1. CCN(C(=O)c1ccc(Nc2ncc(F)c(-c3cnc(C)n3C3CCOCC3)n2)cn1)C(C)C [Example 19]
2. Cc1ncc(-c2nc(Nc3ccc(S(=O)(=O)N4CCN(C)CC4)nc3)ncc2F)n1C1CCOCC1 [Example 58]
3. CCCN(C(=O)c1ccc(Nc2ncc(F)c(-c3cnc(C)n3C3CCOCC3)n2)cn1)C(C)CC (stereo not shown) [Example 12]
4. O=C(c1ncc(Nc2ncc(F)c(-c3cnc(C(F)(F)F)n3C3CCOCC3)n2)cc1Cl)N1CCCCC1 [Example 57, hydrochloride]
5. CCCCN1CCN(C(=O)c2ccc(Nc3ncc(F)c(-c4cnc(C)n4C4CCOCC4)n3)cn2)CC1 [Example 18]
6. Cc1ncc(-c2nc(Nc3ccc(C(=O)N(Cc4ccccc4)C(C)C)nc3)ncc2F)n1C1CCOCC1 [Example 30]

7.60
7.52
7.54
7.72
7.33
7.77
